Biological target: GSK3β (Homo sapiens)
Sequence (P49841 whole entry, species assumed): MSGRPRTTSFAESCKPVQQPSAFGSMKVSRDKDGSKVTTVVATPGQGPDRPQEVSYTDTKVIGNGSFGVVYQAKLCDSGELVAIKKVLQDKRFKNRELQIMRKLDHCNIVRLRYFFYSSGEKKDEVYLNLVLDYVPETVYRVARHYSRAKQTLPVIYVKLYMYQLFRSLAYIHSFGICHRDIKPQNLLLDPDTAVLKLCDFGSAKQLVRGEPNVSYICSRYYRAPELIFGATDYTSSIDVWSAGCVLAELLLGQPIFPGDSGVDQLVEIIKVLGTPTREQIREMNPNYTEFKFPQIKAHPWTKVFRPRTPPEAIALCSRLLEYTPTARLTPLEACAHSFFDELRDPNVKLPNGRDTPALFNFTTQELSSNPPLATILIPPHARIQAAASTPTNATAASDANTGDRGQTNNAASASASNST
Test: GSK3β ATP depletion assay
Format: biochemical
Conditions: ATP depletion assay; read-out: GSK3b IC50
Procedure: GSK3β ATP Depletion Assay The activity of GSK3β is measured using a luciferase-luciferin based ATP detection reagent to quantify ATP depletion resulting from kinase-catalyzed phosphoryl transfer to a peptide substrate. Compounds to be tested are dissolved in 100% DMSO and directly distributed into white 384-well plates at 0.5 μl per well. […] The stopped reaction is incubated for 10 minutes and the remaining ATP is detected via luminescence on the Victor2 (Perkin Elmer).
value type: IC50 (nM)

C[C@@]1(O)[C@@H](N)C[C@@H](c2ccncc2NC(=O)c2ccc(F)c(-c3c(F)cccc3F)n2)O[C@H]1C1CC1 [Example 257] | 20000
C[C@H]1O[C@@H](c2ccncc2NC(=O)c2nc(-c3ccccc3)cnc2N)C[C@@H](N)[C@]1(C)O [Example 228] | 13
CC[C@]1(O)[C@H](N)C[C@H](c2ccncc2NC(=O)c2ccc(F)c(-c3c(F)cc(C)cc3F)n2)O[C@@H]1C [Example 259] | 218

A. CC1(C)C[C@H](N)C[C@@H](c2ccncc2NC(=O)c2ccc(F)c(-c3c(F)cc(OCCO)cc3F)n2)O1 [Example 314]
B. CC(C)[C@H]1O[C@@H](c2ccncc2NC(=O)c2nc(-c3ccccc3)cnc2N)C[C@@H](N)[C@@H]1O [Example 356]
Exam item: Consider A and B . Which of these has its IC50 at a higher number? Your answer should be the label of the entry you select.
Marked response: A
(A: 109 nM, B: 8.6 nM)

I. Nc1ncc(-c2ccccc2)nc1C(=O)Nc1cnccc1[C@H]1C[C@@H](N)[C@H](O)[C@@H](C2CC2)O1 [Example 346]
II. CC[C@@H]1O[C@H](c2ccncc2NC(=O)c2ccc(F)c(-c3c(F)cccc3F)n2)C[C@H](N)[C@@]1(C)O (stereo in doubt) [Example 276]
III. C[C@@]1(O)[C@@H](O)C[C@@H](c2ccncc2NC(=O)c2nc(-c3c(F)cccc3F)ncc2N)O[C@H]1C1CC1 [Example 249]
Exam item: Sort by IC50, descending. Kindly provide the labels arranged according to the requested ordering.
Marked response: II, III, I
(II: 20900 nM, III: 6020 nM, I: 9.2 nM)

1. C[C@@H]1O[C@H](c2ccncc2NC(=O)c2ccc(F)c(-c3c(F)cccc3F)n2)C[C@H](N)[C@@]1(C)O [Example 220]
2. CC(C)[C@H]1C[C@@H](N)C[C@@H](c2ccncc2NC(=O)c2nc(-c3ccccc3)cnc2N)O1 [Example 292]
Exam item: For the pair 1 and 2 , which member has the lower IC50 number? Your answer should be the label of the entry you select.
Marked response: 2
(2: 44 nM, 1: 9140 nM)

A. C[C@]1(O)[C@H](N)C[C@H](c2ccncc2NC(=O)c2nc(-c3ccccc3)cnc2N)OC12CC2 [Example 353]
B. CC[C@@H]1O[C@H](c2ccncc2NC(=O)c2nc(-c3ccccc3)cnc2N)C[C@H](N)[C@@]1(C)O [Example 345]
Exam item: Consider A and B . Which of these has its IC50 at a higher number? Your answer should be the label of the entry you select.
Marked response: B
(B: 370 nM, A: 25 nM)

P. C[C@H]1O[C@@H](c2ccncc2NC(=O)c2ccc(F)c(-c3c(F)cccc3F)n2)C[C@@H](N)[C@]1(C)O [Example 219]
Q. C[C@]1(O)[C@@H](N)C[C@H](c2ccncc2NC(=O)c2nc(-c3ccccc3)cnc2N)OC12CC2 [Example 351]
Exam item: Consider P and Q . Which of these has its IC50 at a higher number? Your answer should be the label of the entry you select.
Marked response: P
(P: 979 nM, Q: 0.4 nM)

a. C[C@@]1(O)[C@H](N)C[C@@H](c2ccncc2NC(=O)c2ccc(F)c(-c3c(F)cccc3F)n2)OC12CC2 [Example 288]
b. CC(C)[C@@H]1O[C@H](c2ccncc2NC(=O)c2nc(-c3ccccc3)cnc2N)C[C@H](N)[C@H]1O [Example 240]
c. O=C(Nc1cc(=O)[nH]cc1[C@H]1C[C@@H](O)[C@H](O)[C@@H](CO)O1)c1ccc(F)c(-c2c(F)cccc2F)n1 [Example 226]
d. CC[C@@H]1O[C@H](c2ccncc2NC(=O)c2nc(-c3ccccc3)cnc2N)C[C@H](N)[C@H]1O [Example 342]
e. C[C@H]1O[C@@H](c2ccncc2NC(=O)c2nn(Cc3ccccc3)cc2N)C[C@@H](O)[C@]1(C)O [Example 218]
Exam item: Sort by IC50, descending. Kindly provide the labels arranged according to the requested ordering.
Marked response: a, c, e, b, d
(a: 16300 nM, c: 10600 nM, e: 1290 nM, b: 270 nM, d: 39 nM)

A. CC[C@]1(O)[C@H](N)C[C@H](c2ccncc2NC(=O)c2nc(-c3c(F)cccc3F)ncc2N)O[C@@H]1C [Example 239]
B. Nc1ncc(-c2ccccc2)nc1C(=O)Nc1cnccc1[C@H]1C[C@@H](O)[C@H](O)[C@@H](CO)O1 [Example 341]
Exam item: Consider A and B . Which of these has its IC50 at a higher number? Your answer should be the label of the entry you select.
Marked response: A
(A: 352 nM, B: 3 nM)

1. CC(C)(C)[C@H]1O[C@@H](c2ccncc2NC(=O)c2ccc(F)c(-c3c(F)cccc3F)n2)C[C@@H](N)[C@@H]1O [Example 255]
2. Nc1ncc(-c2ccccc2)nc1C(=O)Nc1cnccc1[C@@H]1C[C@H](N)[C@]2(O)CCC[C@@H]2O1 [Example 185]
3. C[C@]1(O)[C@H](N)C[C@H](c2ccncc2NC(=O)c2nc(-c3ccccc3)cnc2N)O[C@@H]1C1CC1 [Example 344]
Exam item: Sort by IC50, descending. Kindly provide the labels arranged according to the requested ordering.
Marked response: 1, 2, 3
(1: 2190 nM, 2: 670 nM, 3: 29 nM)
